Data origin: ChEMBL document CHEMBL1759846

# protocolNotes: Intrinsic clearance in human liver microsomes
# Type: ADME, Microsome
assayReadout: microsomal CLint (µL/min/mg)

                            smilesstructure      assayreadout  sign  quantitativeresult
0  O=C(N[C@@H]1CCC[C@H](O)C1)c1noc(-c2ccc(C(F)(F)F)cc2)c1CNCC1CC1  microsomal CLint     =                  48
1  CC(C)CNCc1c(C(=O)N[C@@H]2CCC[C@H](O)C2)noc1-c1ccc(C(F)(F)F)cc1  microsomal CLint     =                  12
2  CC(C)NCc1c(C(=O)N[C@@H]2CCC[C@H](O)C2)noc1-c1ccc(C(F)(F)F)cc1  microsomal CLint     <                  12
3  C[C@H](NCc1c(C(=O)N[C@@H]2CCC[C@H](O)C2)noc1-c1ccc(C(F)(F)F)cc1)C(F)(F)F  microsomal CLint     =                  66
4  O=C(N[C@@H]1CCC[C@H](O)C1)c1noc(-c2ccc(C(F)(F)F)cc2)c1CNCC1CCC1  microsomal CLint     =                  21

====

# System: Hepatocyte
# protocolNotes: Intrinsic clearance in rat hepatocytes
# Format: ADME, cell-based, Liver
Consider the following molecules and their measured CL readings.
assayReadout: CL (µL/min)

In [3]: df
Out[3]:
                            smilesstructure  assayreadout  sign  quantitativeresult
0  CC(C)CNCc1c(C(=O)N[C@@H]2CCC[C@H](O)C2)noc1-c1ccc(C(F)(F)F)cc1            CL     =                  12
1  CC(C)(CO)CNCc1c(C(=O)N[C@@H]2CCC[C@H](O)C2)noc1-c1ccc(C(F)(F)F)cc1            CL     =                  10
2  O=C(N[C@@H]1CCC[C@H](O)C1)c1noc(-c2ccc(C(F)(F)F)cc2)c1CNC1CC1            CL     <                   6
3  CC(C)NCc1c(C(=O)N[C@@H]2CCC[C@H](O)C2)noc1-c1ccc(C(F)(F)F)cc1            CL     <                   6

====

# protocolNotes: Plasma protein binding in human
# Type: ADME, cell-free
# particulars: read-out: PPB (converted)
API: label(entry) gives yes (1) if the entry's fraction unbound is strictly smaller than 0.2; on equality or larger values it gives no (0).

In [3]: df
Out[3]:
                            smilesstructure  discretelabel
0  CC(C)[C@H](CO)NCc1c(C(=O)N[C@@H]2CCC[C@H](O)C2)noc1-c1ccc(C(F)(F)F)cc1         no (0)
1  CC(C)CNCc1c(C(=O)N[C@@H]2CCC[C@H](O)C2)noc1-c1ccc(C(F)(F)F)cc1        yes (1)
2  CC(C)NCc1c(C(=O)N[C@@H]2CCC[C@H](O)C2)noc1-c1ccc(C(F)(F)F)cc1         no (0)
3  O=C(N[C@@H]1CCC[C@H](O)C1)c1noc(-c2ccc(C(F)(F)F)cc2)c1CNC1CC1        yes (1)
4  C[C@H](NCc1c(C(=O)N[C@@H]2CCC[C@H](O)C2)noc1-c1ccc(C(F)(F)F)cc1)C(F)(F)F        yes (1)
5  CC(C)(CO)CNCc1c(C(=O)N[C@@H]2CCC[C@H](O)C2)noc1-c1ccc(C(F)(F)F)cc1         no (0)

====

# protocolNotes: Octanol-water partition coefficient, log D of the compound at pH 7.4 by RP-HPLC analysis
# Format: physicochemical
assayReadout: logD

In [3]: df
Out[3]:
                                    compound  quantitativeresult
 0  O=C(N[C@@H]1CCC[C@H](O)C1)c1noc(-c2ccc(C(F)(F)F)cc2)c1CNCC1CCC1                 4.4
 1  CC(C)CNCc1c(C(=O)N[C@@H]2CCC[C@H](O)C2)noc1-c1ccc(C(F)(F)F)cc1                 4.3
 2  O=C(N[C@@H]1CCC[C@H](O)C1)c1noc(-c2ccc(C(F)(F)F)cc2)c1CNC1CCC1                 4.3
 3  CC(C)N(C)Cc1c(C(=O)N[C@@H]2CCC[C@H](O)C2)noc1-c1ccc(C(F)(F)F)cc1                   4
 4  COCCN(C)Cc1c(C(=O)N[C@@H]2CCC[C@H](O)C2)noc1-c1ccc(C(F)(F)F)cc1                   4
 5  CC(C)[C@@H](CO)NCc1c(C(=O)N[C@@H]2CCC[C@H](O)C2)noc1-c1ccc(C(F)(F)F)cc1                 4.1
 6  C[C@H](NCc1c(C(=O)N[C@@H]2CCC[C@H](O)C2)noc1-c1ccc(C(F)(F)F)cc1)C(F)(F)F                 5.6
 7  COCCNCc1c(C(=O)N[C@@H]2CCC[C@H](O)C2)noc1-c1ccc(C(F)(F)F)cc1                 3.7
 8  CN(Cc1c(C(=O)N[C@@H]2CCC[C@H](O)C2)noc1-c1ccc(C(F)(F)F)cc1)C[C@@H]1CCCO1                 3.6
 9  CN(Cc1c(C(=O)N[C@@H]2CCC[C@H](O)C2)noc1-c1ccc(C(F)(F)F)cc1)[C@@H]1CCOC1                 4.5
10  CN(CCS(C)(=O)=O)Cc1c(C(=O)N[C@@H]2CCC[C@H](O)C2)noc1-c1ccc(C(F)(F)F)cc1                 3.6
11  O=C(N[C@@H]1CCC[C@H](O)C1)c1noc(-c2ccc(C(F)(F)F)cc2)c1CNCC(O)C(F)(F)F (stereo not given in full)                 4.7
12  O=C(N[C@@H]1CCC[C@H](O)C1)c1noc(-c2ccc(C(F)(F)F)cc2)c1CNCC1CC1                 3.5
13  CN(Cc1c(C(=O)N[C@@H]2CCC[C@H](O)C2)noc1-c1ccc(C(F)(F)F)cc1)C1CCOCC1                 3.7
14  CC(C)NCc1c(C(=O)N[C@@H]2CCC[C@H](O)C2)noc1-c1ccc(C(F)(F)F)cc1                   3
15  NC(=O)C1CCN(Cc2c(C(=O)N[C@@H]3CCC[C@H](O)C3)noc2-c2ccc(C(F)(F)F)cc2)CC1                 3.6
16  CC(C)[C@H](CO)NCc1c(C(=O)N[C@@H]2CCC[C@H](O)C2)noc1-c1ccc(C(F)(F)F)cc1                 4.2
17  O=C(N[C@@H]1CCC[C@H](O)C1)c1noc(-c2ccc(C(F)(F)F)cc2)c1CNC1CC1                 4.5
18  CC(C)(CO)CNCc1c(C(=O)N[C@@H]2CCC[C@H](O)C2)noc1-c1ccc(C(F)(F)F)cc1                 3.5
19  CCN(Cc1c(C(=O)N[C@@H]2CCC[C@H](O)C2)noc1-c1ccc(C(F)(F)F)cc1)C(C)C                 4.1

====

# protocolNotes: Plasma protein binding in Wistar rat
# Type: ADME, cell-free
# particulars: read-out: PPB (converted)
assayReadout: fraction unbound

>>> df
                            smilesstructure  quantitativeresult
0  CC(C)[C@H](CO)NCc1c(C(=O)N[C@@H]2CCC[C@H](O)C2)noc1-c1ccc(C(F)(F)F)cc1               0.116
1  O=C(N[C@@H]1CCC[C@H](O)C1)c1noc(-c2ccc(C(F)(F)F)cc2)c1CNC1CC1               0.064
2  C[C@H](NCc1c(C(=O)N[C@@H]2CCC[C@H](O)C2)noc1-c1ccc(C(F)(F)F)cc1)C(F)(F)F               0.037
3  CC(C)NCc1c(C(=O)N[C@@H]2CCC[C@H](O)C2)noc1-c1ccc(C(F)(F)F)cc1               0.271
4  CC(C)CNCc1c(C(=O)N[C@@H]2CCC[C@H](O)C2)noc1-c1ccc(C(F)(F)F)cc1               0.242
5  CC(C)(CO)CNCc1c(C(=O)N[C@@H]2CCC[C@H](O)C2)noc1-c1ccc(C(F)(F)F)cc1               0.168

====

# microsomal CLint annotations
# protocolNotes: Intrinsic clearance in human liver microsomes
# Assay type: ADME, Microsome
assayReadout: microsomal CLint

In [3]: df
Out[3]:
                            smilesstructure      assayreadout        result
0  CC(C)[C@H](CO)NCc1c(C(=O)N[C@@H]2CCC[C@H](O)C2)noc1-c1ccc(C(F)(F)F)cc1  microsomal CLint  12 µL/min/mg
1  O=C(N[C@@H]1CCC[C@H](O)C1)c1noc(-c2ccc(C(F)(F)F)cc2)c1CNC1CC1  microsomal CLint  17 µL/min/mg
2  CC(C)(CO)CNCc1c(C(=O)N[C@@H]2CCC[C@H](O)C2)noc1-c1ccc(C(F)(F)F)cc1  microsomal CLint  12 µL/min/mg
